Source of measurements: PubChem BioAssay

# EXPERIMENT_SUMMARY: MM1S myeloma cell viability, profiling panel, resazurin fluorescence, basal, 24 h, PK04 Diversity Set (AID 1174);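 also: MM1S multiple myeloma cell line; test concentration not given here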
# MEASUREMENT_CONDITIONS: higher = more signal, called active from +8 up or from −8 down
Activity calls are given as the source filed them.
Here the recorded z-score is given for each entry.

COC(=O)[C@H](C)NC(=O)[C@@H](C)CO    -1.15 (inactive)

Then this compound:
Request: What z-score value was documented for this compound, C#CCCCON=C1C[C@@H](O)[C@@H](O)[C@@H]2[C@@H]3C(=O)N(CCC(=O)OCC)C(=O)[C@@H]3CC[C@@H]12 ?
Response: -1.01 (inactive)

----------
Here the recorded z-score is given for each entry.
# MEASURED_TARGET: NADPH oxidase 2 (Homo sapiens) (UniProt P04839)
# Sequence (P04839 whole entry, looked up): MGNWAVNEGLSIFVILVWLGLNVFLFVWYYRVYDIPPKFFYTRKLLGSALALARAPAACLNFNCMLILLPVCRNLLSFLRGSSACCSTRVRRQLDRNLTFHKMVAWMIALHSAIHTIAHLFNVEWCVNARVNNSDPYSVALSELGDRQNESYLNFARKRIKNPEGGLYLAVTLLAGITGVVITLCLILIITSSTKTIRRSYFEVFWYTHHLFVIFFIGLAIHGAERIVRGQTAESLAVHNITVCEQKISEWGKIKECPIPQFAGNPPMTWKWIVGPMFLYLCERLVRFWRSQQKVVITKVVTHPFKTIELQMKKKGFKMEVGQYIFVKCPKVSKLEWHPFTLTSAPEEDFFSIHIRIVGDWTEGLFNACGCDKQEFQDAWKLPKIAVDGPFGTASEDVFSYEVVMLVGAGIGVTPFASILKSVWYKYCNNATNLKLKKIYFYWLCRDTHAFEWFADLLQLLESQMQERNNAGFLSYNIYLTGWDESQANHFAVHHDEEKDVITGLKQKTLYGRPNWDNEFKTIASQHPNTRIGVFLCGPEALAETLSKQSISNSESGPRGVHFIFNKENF
# EXPERIMENT_SUMMARY: NOX2-dependent H2O2 signal modulators, primary screen, NOX inhibitor project, cell-based, HEK293-NOX2, PMA-stimulated, Amplex Red fluorescence (AID 1159); also: test concentration not given here
# MEASUREMENT_CONDITIONS: 45 min, higher = more signal, called active from +8 up or from −8 down
Give the figure by itself; no unit, no explanation.

These solved cases illustrate the format of a correct answer.
CC1CC/C=C\[C@H]2OC34C=CCN(Cn5nnc6ccccc65)C(=O)[C@H]3N(CCO)C(=O)[C@@H]4C2C(=O)O1 (stereo partly drawn)    1.44
COC(=O)C1(C)C=C2C(=C(c3ccccc3)C(=O)C2C)CN1 (stereo not drawn)    0.512
C[N+](C)(C)CCCCCCNC(=O)[C@@H]1C[C@@H]2C(=O)N3CCC[C@H]3C(=O)N2[C@@H]1c1cccc(OCCO)c1    0.15
COC(=O)[C@@H]1CCCN1C(=O)[C@@H](C)CO    -0.366
CCOC(=O)[C@H](CC(C)C)NC(=O)CCC1CC(OC(=O)NCc2cccc3ccccc23)CC2(CCCC(COC(=O)NCCc3ccccc3OC)O2)O1 (stereo partly drawn)    0.527

Request: What z-score value was documented for this compound, CCOC(=O)C[C@H]1[C@H](OC(=O)c2ccc(C(=O)c3ccccc3)cc2)[C@@H](NC(=O)c2ccc(-c3ccccc3)cc2)c2cc(OCCCO)ccc2N1C(=O)c1ccc2ccccc2n1 ?
Response: -1.46

Request: What z-score value was documented for this compound, [N-]=[N+]=NCc1ccccc1[C@@H]1OC(c2ccc(OCCCO)cc2)=N[C@]1(Cc1ccccc1)C(=O)N1CCOCC1 ?
Response: -1.85

Request: What z-score value was documented for this compound, O=C1CCCC=C1C(O)CCOCc1ccccc1 (stereo not drawn) ?
Response: 1.18

----------
# EXPERIMENT_SUMMARY: binders of probe aFST on microarray, primary screen, stem cell growth factor project, biochemical, small-molecule microarray, fluorescence 635/667 (AID 1086);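 also: score merges 667 nm fluorescence with signal-to-noise of each printed compound spot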
# MEASUREMENT_CONDITIONS: higher = more signal
ENDPOINT: composite z-score

These solved cases illustrate the format of a correct answer.
CO[C@@H]1COC(=O)CCC[C@@H](C)[C@H](OC)COC(=O)CCC[C@H]1C    0.561
CCN1C(=O)[C@H]2[C@H]3[C@H](O)[C@H](O)CC(=NOCc4ccccc4)[C@H]3CC[C@H]2C1=O    0.214
COC(=O)[C@@]1(Cc2ccccc2)[C@H]2c3cc(C(=O)N4CCCC4)n(Cc4ccccn4)c3C[C@H]2CN1C(=O)c1ccccc1    1.65

Then this compound:
Request: What composite z-score value was documented for this compound, CO[C@H]1O[C@H](CO)[C@@H](OC(=O)Nc2ccc3c(c2)OCO3)[C@H](OC(=O)Nc2ccccc2-c2ccccc2)[C@@H]1OC(=O)Nc1ccccc1-c1ccccc1 ?
Response: 0.626

----------
# EXPERIMENT_SUMMARY: modulators of S6 phosphorylation in cells, primary screen, cell-based, A549, cytoblot, luminescence, serum-stimulated (AID 1158);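 also: serum-stimulated A549 lung adenocarcinoma cells; signal is phosphorylated S6 detected by cytoblot immunostaining with HRP secondary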
# MEASUREMENT_CONDITIONS: A549 phospho-S6 cytoblot, 5 h, higher = more signal
Here the recorded z-score is given for each entry.
Give the figure by itself; no unit, no explanation.

These solved cases illustrate the format of a correct answer.
C=COC[C@H]1CN2[C@@H](CC[C@@H](C)[C@@H]2c2ccc(Br)cc2)C(=O)O1    1.54
C#CCCCON=C1C[C@@H](O)[C@@H](O)[C@@H]2[C@@H]3C(=O)N(CCC(=O)OCC)C(=O)[C@@H]3CC[C@@H]12    0.194
C#C[C@@H](CC)O[Si](C#Cc1ccc(Oc2ccccc2)cc1)(C(C)C)C(C)C    -0.724

Then this molecule:
Request: What z-score value was documented for this molecule, CCCCCCc1nc(CCCc2cc3c(c(CCCCCC)n2)[Si](C(C)C)(C(C)C)O[C@H]3c2ccccc2)cc2c1[Si](C(C)C)(C(C)C)O[C@H]2c1ccccc1 ?
Response: -0.415

----------
# System: PRMT1 (protein arginine N-methyltransferase 1)
# EXPERIMENT_SUMMARY: PRMT1 binders on small-molecule microarrays, primary screen, biochemical, small-molecule microarray, 635 nm fluorescence (AID 1088);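 also: binding of Prmt1 protein to compounds spotted on small-molecule microarray slides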
# MEASUREMENT_CONDITIONS: small-molecule microarray binding, higher = more signal
ENDPOINT: composite z-score

CC(=O)OC[C@H]1O[C@@H](ON=C(C)CCN2CCc3nc(-c4ccccc4)c(-c4ccccc4)cc3C2)[C@H](OC(C)=O)[C@@H](OC(C)=O)[C@@H]1OC(C)=O    1.51
CC(C)[Si]1(C(C)C)O[C@@H](c2ccccc2)c2cc(C3CC3)nc(-c3ccccc3)c21    0.0587
O=C1[C@H]2[C@H]3[C@H](O)[C@H](O)CC(=NOC[C@@H](O)COCc4ccco4)[C@H]3CC[C@H]2C(=O)N1c1cccc(Oc2ccccc2)c1    -0.267
CN(C)c1ccc(C(O)C2C=CC3C(=O)N(c4ccccc4)C(=O)C3N2Nc2ccccc2F)cc1 (stereo not given)    1.09

Then this molecule:
Request: What composite z-score value was documented for this molecule, CCOC(=O)CCN1C(=O)[C@H]2[C@H]3[C@H](O)[C@H](O)CC(=NOC[C@@H](O)COCc4ccco4)[C@H]3CC[C@H]2C1=O ?
Response: 1.46

----------
# MEASURED_TARGET: Calmodulin-1 (Homo sapiens) (UniProt P0DP23)
# EXPERIMENT_SUMMARY: CALM1 binders on microarrays, EGTA buffer, profiling panel, biochemical, small-molecule microarray, Cy5-labelled CALM1 (AID 1111);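 also: labelled calmodulin applied in Tris saline Tween buffer holding calcium plus EGTA and DTT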
# MEASUREMENT_CONDITIONS: Cy5-CALM1 binding fluorescence, higher = more signal
Here the recorded composite z-score is given for each entry.
Give the figure by itself; no unit, no explanation.

CCOC(=O)CCN1C(=O)[C@H]2[C@H]3[C@H](O)[C@H](O)CC(=NNC(=O)OCc4ccc(OC)cc4)[C@@H]3CC[C@H]2C1=O    0.715
CCN1C(=O)[C@H]2[C@H]3[C@H](O)[C@H](O)CC(=NOCc4ccccc4)[C@H]3CC[C@H]2C1=O    -0.253
CC(C)CON=C1C[C@@H](O)[C@@H](O)[C@@H]2[C@@H]3C(=O)N(C[C@@H]4CCCO4)C(=O)[C@@H]3CC[C@H]12    0.0832
CC(C)[C@@H](OCc1ccccc1)[C@H](C)C=NO[C@H](C)c1cn([C@H](CO)Cc2ccccc2)nn1    -0.211
CN(C)c1ccc(C(O)C2C=CC3C(=O)N(c4ccccc4)C(=O)C3N2Nc2ccccc2F)cc1 (stereo not given)    0.104
CCOC(=O)NN=C1C[C@@H](O)[C@@H](O)[C@@H]2[C@@H]3C(=O)N(C4CCCCC4)C(=O)[C@@H]3CC[C@@H]12    -0.29
CCCC=C(CCC)[C@@H](NC(=O)c1ccc(-c2ccccc2)cc1)c1ccc(C(=O)OC)cc1    1.84
CCCC[C@@H]1C[C@H]1[C@@H](NS(=O)(=O)c1cccc2cccnc12)c1ccc(-c2ccccc2)cc1    0.691

Request: What composite z-score value was documented for this molecule, CC(C)NC(=O)[C@@H]1c2ccccc2C(=O)N(CC23CC4CC(CC(C4)C2)C3)[C@H]1c1ccc(CO)cc1 ?
Response: 0.324

Request: What composite z-score value was documented for this molecule, CO[C@@H]1COC(=O)CCC[C@@H](C)[C@H](OC)COC(=O)CCC[C@H]1C ?
Response: -0.454

Request: What composite z-score value was documented for this molecule, COc1ccc([Si](C)(C)[C@H]2[C@H](CC(=O)N3CCC[C@H]3CO)O[C@@]3(C(=O)N(Cc4cccc(N5C(=O)COc6ccccc65)c4)c4ccccc43)[C@@H]2C)cc1 ?
Response: 1.36

Request: What composite z-score value was documented for this molecule, CCCC[C@H]1OB(O)C[C@H]2C1=C(C)C[C@H]1C(=O)N(C)C(=O)[C@H]12 ?
Response: -0.0405

Request: What composite z-score value was documented for this molecule, O=C1[C@H]2[C@H]3[C@H](O)[C@H](O)CC(=NOCc4ccccc4)[C@H]3CC[C@H]2C(=O)N1c1ccc(F)cc1F ?
Response: -0.251

Request: What composite z-score value was documented for this molecule, CC(=O)OC[C@H]1O[C@@H](ON=C[C@@H](C)[C@H](OCc2ccccc2)C(C)C)[C@H](OC(C)=O)[C@@H](OC(C)=O)[C@@H]1OC(C)=O ?
Response: 0.336

Request: What composite z-score value was documented for this molecule, C#C[C@@H](CC)O[Si](C#Cc1ccc(Oc2ccccc2)cc1)(C(C)C)C(C)C ?
Response: -0.0885
